Sourced from PubChem BioAssay (EPA / NIEHS)

Molecular target: Nuclear receptor subfamily 1 group I member 2 (Homo sapiens) (UniProt O75469)
Sequence (O75469 whole entry, looked up): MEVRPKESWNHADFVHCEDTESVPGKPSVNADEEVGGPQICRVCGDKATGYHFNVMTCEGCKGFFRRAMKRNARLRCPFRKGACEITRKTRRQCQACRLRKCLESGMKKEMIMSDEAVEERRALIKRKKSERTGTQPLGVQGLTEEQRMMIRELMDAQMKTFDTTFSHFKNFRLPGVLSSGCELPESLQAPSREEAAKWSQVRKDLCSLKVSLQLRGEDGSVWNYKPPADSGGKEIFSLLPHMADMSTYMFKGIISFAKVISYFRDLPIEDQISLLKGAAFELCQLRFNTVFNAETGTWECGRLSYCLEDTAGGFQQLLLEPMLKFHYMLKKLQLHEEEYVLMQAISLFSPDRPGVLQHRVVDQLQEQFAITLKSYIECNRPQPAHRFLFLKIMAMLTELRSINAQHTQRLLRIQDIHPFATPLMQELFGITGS
Assay: NVS_NR_hPXR: NovaScreen (NVS) Nuclear Receptor Binding Assay for human Pregnane X Receptor (PXR) (AID 2283365);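 note: a drop in FRET signal versus DMSO baseline means the compound binds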
Inconclusive results are not listed. Calls of active or inactive are those of the source. Rule for the calls: active = hit-call score of the fitted dose curve at least 0.9, where 1 is the maximum; inconclusive = response in the unintended direction; inactive = score below 0.9.
Parameter call: string, one of active, inactive

Prompt line: Fill in: this test's call for `NC(=NCCCCCCN=C(N)/N=C(\N)Nc1ccc(Cl)cc1)/N=C(\N)Nc1ccc(Cl)cc1` is ___
Response line: inactive

Prompt line: Same lookup for `Cc1cc(C(=C2C=CC(=Nc3ccc(S(=O)(=O)O)cc3)C=C2)c2ccc(Nc3ccc(S(=O)(=O)O)cc3)cc2)cc(S(=O)(=O)O)c1N` , please.
Response line: active

Prompt line: Same lookup for `Cc1ccc(S(=O)(=O)O)cc1` , please.
Response line: inactive

Prompt line: Same lookup for `CCCCCCCCCCCC` , please.
Response line: active

Prompt line: Same lookup for `CCCCCCCCCCCC(=O)O` , please.
Response line: inactive
